src = the RNAGym collection of RNA variant scans (doi:10.1093/molbev/msab373)

B1: Azoarcus group I ribozyme (parent)
chain: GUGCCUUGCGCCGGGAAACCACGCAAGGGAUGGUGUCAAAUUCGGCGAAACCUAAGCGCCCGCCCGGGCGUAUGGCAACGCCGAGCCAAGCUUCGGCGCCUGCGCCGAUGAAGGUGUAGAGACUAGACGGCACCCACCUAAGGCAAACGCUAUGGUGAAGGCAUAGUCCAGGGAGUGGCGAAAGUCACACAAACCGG

Variants of: B1
Assay: reverse-splicing fitness (ratio to wild type); higher = more active; in vitro selection; Mg2+ level not given
Think of 0.006 as a floor: if reverse-splicing fitness stands on it or above, it is true; beneath it, false.

*Q* Textbook exercise: given the entry C82U A111G A120U A145C U176G , state whether its reverse-splicing fitness is greater than or equal to 0.006.
*A* false

Continuing:
*Q* reverse-splicing fitness >= 0.006 for C82U A111C A120C A145C C150G C169A U176G ?
*A* true

*Q* Assess whether reported reverse-splicing fitness for C82A A111G A120G A145C U176C sits at 0.006 or higher.
*A* true

*Q* Hello, I need to know if C82A A111G A145C C150A U176A has measured reverse-splicing fitness not below 0.006. Thanks!
*A* true
